From: ChEMBL document CHEMBL2218924

system under test: Fibroblast growth factor receptor 1 (Homo sapiens) (UniProt P11362)
Sequence (P11362 22-822 limits assumed): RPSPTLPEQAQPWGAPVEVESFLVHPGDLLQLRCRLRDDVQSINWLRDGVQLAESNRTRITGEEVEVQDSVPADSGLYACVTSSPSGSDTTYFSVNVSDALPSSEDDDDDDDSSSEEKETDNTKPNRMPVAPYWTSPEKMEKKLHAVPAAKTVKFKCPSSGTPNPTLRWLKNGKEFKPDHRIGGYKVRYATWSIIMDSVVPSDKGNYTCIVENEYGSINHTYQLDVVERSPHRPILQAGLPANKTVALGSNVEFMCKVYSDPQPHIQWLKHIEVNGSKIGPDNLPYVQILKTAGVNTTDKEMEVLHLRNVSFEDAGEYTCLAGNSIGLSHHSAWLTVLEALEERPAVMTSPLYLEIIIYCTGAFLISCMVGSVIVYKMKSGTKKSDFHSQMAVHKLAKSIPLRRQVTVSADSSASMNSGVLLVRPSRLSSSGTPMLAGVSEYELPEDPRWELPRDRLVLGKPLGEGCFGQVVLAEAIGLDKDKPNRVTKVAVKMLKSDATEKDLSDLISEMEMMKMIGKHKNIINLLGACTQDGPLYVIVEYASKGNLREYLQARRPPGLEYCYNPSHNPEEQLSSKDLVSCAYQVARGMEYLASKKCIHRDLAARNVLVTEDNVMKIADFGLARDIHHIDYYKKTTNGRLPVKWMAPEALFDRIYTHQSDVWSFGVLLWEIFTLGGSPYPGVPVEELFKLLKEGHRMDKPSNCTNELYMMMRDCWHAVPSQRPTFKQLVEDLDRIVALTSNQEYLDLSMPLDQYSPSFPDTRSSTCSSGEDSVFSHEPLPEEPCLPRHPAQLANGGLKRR
experimental context: at 1 µM
Provide the recorded residual activity for the entries that follow.
Enter the number, and then the unit.

compound	experimental readout	endpoint result
C[S+]([O-])c1ccc(-c2nc(-c3ccc(F)cc3)c(-c3ccncc3)[nH]2)cc1 (stereo not given)	residual activity	142%
CCc1nc(-c2ccc(OC)cc2)[nH]c1-c1ccncc1	residual activity	104%
O=[N+]([O-])/C=C/c1ccc2c(c1)OCO2	residual activity	115%
CC(C)[C@H](CO)Nc1nc(Nc2cccc(Cl)c2)c2ncn(C(C)C)c2n1	residual activity	98%
COC(=O)[C@@]1(O)C[C@H]2O[C@]1(C)n1c3ccccc3c3c4c(c5c6ccccc6n2c5c31)C(=O)NC4	residual activity	10%
CCn1cnc2c(Nc3cccc(Cl)c3)nc(N[C@@H]3CCCC[C@@H]3N)nc21	residual activity	76%
COc1cc(OC)c(/C=C2\C(=O)Nc3ccccc32)c(OC)c1	residual activity	107%
COc1ccc2c(c1)/C(=C/c1cnc[nH]1)C(=O)N2	residual activity	65%
O=C1Nc2ccc3ncsc3c2/C1=C/c1c[nH]cn1	residual activity	9%

Which residual activity reading was recorded for the compound "c1cc(-c2cnn3cc(-c4ccc(OCCN5CCCCC5)cc4)cnc23)ccn1" ?
47%
